These entries and their values trace back to paper PMC5250654.

# Protocol summary: clinical
# Settings: human, in vivo, po, 900 mg
Property: AUC(0-t) (ng·h/mL)
Field format: number, assumed ng·h/mL, no unit text.

Item c1cn2cc(-c3ccc4cn[nH]c4c3)nc(Nc3ccc(N4CCOCC4)cc3)c2n1 [entospletinib, Entospletinib] : provide AUC(0-t) 5860

----------
# Protocol summary: clinical
# Settings: human, in vivo, po, 75 mg
Property: AUC(0-inf) (ng·h/mL)
Field format: number, assumed ng·h/mL, no unit text.

Item c1cn2cc(-c3ccc4cn[nH]c4c3)nc(Nc3ccc(N4CCOCC4)cc3)c2n1 : provide AUC(0-inf) 413
